# Assay Details: Plasma concentration in rats after intravenous administration (HPLC)
# Details: rat, plasma, iv, 1 mg/kg
Structures can show the parent of a compound that is named as a salt.
Quantity Name: concentration at 0.5 h (ng/mL)
Just the number please, in ng/mL, no unit attached.

{"Compound": "N=C(N)c1cccc(CC(NS(=O)(=O)c2ccc3ccccc3c2)C(=O)N2Cc3ccccc3CC2C(=O)O)c1 (racemic) [Compound 134]", "Reported Measurement": 79}
{"Compound": "NCc1cccc(CC(NS(=O)(=O)c2ccc3ccccc3c2)C(=O)N2CCC(C(=O)O)CC2)c1 (racemic) [Compound 186]", "Reported Measurement": 225}
{"Compound": "N=C(N)c1cccc(CC(NS(=O)(=O)c2ccc3ccccc3c2)C(=O)N2CCCCC2C(=O)O)c1 (racemic) [Compound 83]", "Reported Measurement": 150}
{"Compound": "N=C(N)c1cccc(CC(NS(=O)(=O)c2ccc3ccccc3c2)C(=O)N2CCC(C(=O)O)CC2)c1 (racemic) [Compound 85]", "Reported Measurement": 240}
{"Compound": "N=C(N)c1cccc(C[C@H](NS(=O)(=O)c2ccc3ccccc3c2)C(=O)N2CCC[C@@H]2C(=O)O)c1 [Compound 123, hydrochloride]", "Reported Measurement": 260}

Let's switch to this compound now.
**Q:** Please report concentration at 0.5 h for the following compound: N=C(NO)c1cccc(CC(NS(=O)(=O)c2ccc3ccccc3c2)C(=O)N2Cc3ccccc3CC2C(=O)O)c1 (racemic) [Compound 190, hydroiodide]
**A:** 477

====

pKi, plasmin (Homo sapiens, UniProt P00747): measured values
// pKi is dimensionless: -log10 of concentration (M)

Consider the following illustrative entries.
{"Compound": "N=C(N)c1cccc(CC(NS(=O)(=O)c2ccc3ccccc3c2)C(=O)N2CCCCC2C(=O)O)c1 (racemic) [Compound 83]", "pKi": 4.47}
{"Compound": "CC1CCN(C(=O)C(Cc2cccc(C(=N)N)c2)NS(=O)(=O)c2ccc3ccccc3c2)CC1 (racemic) [Compound 34]", "pKi": 5.40}
{"Compound": "CC1CCN(C(=O)C(Cc2cccc(C(=N)N)c2)NS(=O)(=O)c2ccc3ccccc3c2)C(C(=O)O)C1 (racemic) [Compound 86]", "pKi": 4.38}
{"Compound": "COC(=O)[C@H](Cc1cccc(C(=N)N)c1)NC(=O)CNS(=O)(=O)c1ccc(C)cc1 [TAPAM, reference compound]", "pKi": 3.80}
{"Compound": "N=C(N)c1cccc(CC(NS(=O)(=O)c2ccc3ccccc3c2)C(=O)N2Cc3ccccc3CC2C(=O)O)c1 (racemic) [Compound 134]", "pKi": 6.17}

**Q:** Provide pKi, recorded with plasmin (Homo sapiens, UniProt P00747), of CC1CCN(C(=O)C(Cc2cccc(C(=N)N)c2)NS(=O)(=O)c2cccc3cccnc23)CC1 (racemic) [Compound 171, hydroiodide]
Sequence (P00747 581-810 limits assumed): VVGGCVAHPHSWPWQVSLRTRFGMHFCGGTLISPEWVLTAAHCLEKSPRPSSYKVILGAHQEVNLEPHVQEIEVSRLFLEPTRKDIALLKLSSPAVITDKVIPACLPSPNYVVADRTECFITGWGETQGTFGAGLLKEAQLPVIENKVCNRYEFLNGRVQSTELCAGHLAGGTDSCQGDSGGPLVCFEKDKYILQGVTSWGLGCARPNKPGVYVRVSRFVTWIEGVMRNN
Sequence (P00747 97-580 partner limits assumed): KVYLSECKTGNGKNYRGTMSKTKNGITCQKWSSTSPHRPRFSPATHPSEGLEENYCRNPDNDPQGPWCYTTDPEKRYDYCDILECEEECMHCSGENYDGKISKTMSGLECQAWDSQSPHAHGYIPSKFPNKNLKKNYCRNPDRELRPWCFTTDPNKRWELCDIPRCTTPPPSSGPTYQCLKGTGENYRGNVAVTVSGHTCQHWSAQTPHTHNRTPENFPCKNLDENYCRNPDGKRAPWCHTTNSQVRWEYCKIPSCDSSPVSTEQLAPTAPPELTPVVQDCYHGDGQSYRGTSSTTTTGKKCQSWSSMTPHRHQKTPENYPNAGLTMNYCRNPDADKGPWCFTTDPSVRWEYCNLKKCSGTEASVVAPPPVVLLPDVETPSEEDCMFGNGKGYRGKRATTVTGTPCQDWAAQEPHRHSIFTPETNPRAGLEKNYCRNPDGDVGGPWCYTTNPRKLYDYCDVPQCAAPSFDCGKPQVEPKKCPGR
**A:** 4.00

====

Reported concentration at 1 h is given for each of the following compounds.
# Assay Details: Plasma concentration in rats after oral administration (HPLC)
# Details: rat, plasma, po, 100 mg/kg
Structures can show the parent of a compound that is named as a salt.
Just the number please, in ng/mL, no unit attached.

{"Compound": "N=C(N)c1cccc(CC(NS(=O)(=O)c2ccc3ccccc3c2)C(=O)N2CCC(C(=O)O)CC2)c1 (racemic)", "Reported Measurement": 120}
{"Compound": "N=C(N)c1cccc(C[C@H](NS(=O)(=O)c2ccc3ccccc3c2)C(=O)N2CCC[C@@H]2C(=O)O)c1 [Compound 123, hydrochloride]", "Reported Measurement": 100}

Let's switch to this compound now.
**Q:** Please report concentration at 1 h for the following compound: NCc1cccc(CC(NS(=O)(=O)c2ccc3ccccc3c2)C(=O)N2CCC(C(=O)O)CC2)c1 (racemic)
**A:** 1250
